# Measurement target: FGFR1 (UniProt P11362)
# Sequence (P11362 whole entry, looked up): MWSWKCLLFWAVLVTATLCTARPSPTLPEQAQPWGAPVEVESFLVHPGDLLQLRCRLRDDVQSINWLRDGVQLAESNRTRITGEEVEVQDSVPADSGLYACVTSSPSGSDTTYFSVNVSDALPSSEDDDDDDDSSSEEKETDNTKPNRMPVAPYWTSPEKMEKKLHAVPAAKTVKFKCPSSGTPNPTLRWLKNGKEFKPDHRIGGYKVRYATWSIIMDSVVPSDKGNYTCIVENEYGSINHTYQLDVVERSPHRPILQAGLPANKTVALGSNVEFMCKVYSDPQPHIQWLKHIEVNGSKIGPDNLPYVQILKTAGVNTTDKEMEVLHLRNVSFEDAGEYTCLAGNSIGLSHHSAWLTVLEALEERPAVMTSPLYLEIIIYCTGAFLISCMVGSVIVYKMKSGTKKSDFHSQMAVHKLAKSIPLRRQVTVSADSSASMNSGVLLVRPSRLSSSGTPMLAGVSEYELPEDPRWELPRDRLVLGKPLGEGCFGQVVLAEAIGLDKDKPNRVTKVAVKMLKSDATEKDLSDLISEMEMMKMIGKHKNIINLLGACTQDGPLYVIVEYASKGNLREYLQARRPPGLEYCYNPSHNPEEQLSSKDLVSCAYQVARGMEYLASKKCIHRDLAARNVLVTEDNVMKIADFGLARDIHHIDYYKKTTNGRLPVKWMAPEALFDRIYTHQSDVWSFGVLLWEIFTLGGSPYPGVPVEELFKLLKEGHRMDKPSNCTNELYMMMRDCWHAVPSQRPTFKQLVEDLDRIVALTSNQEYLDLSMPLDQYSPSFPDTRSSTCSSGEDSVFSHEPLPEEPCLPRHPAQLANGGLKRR
# Experiment summary: phosphorylation enrichment, bacterial display (enrichment ratio); higher = better substrate or ligand; peptides without Tyr show the background;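 note: 11-residue human phosphosite peptides and single-mutation variants displayed on the E. coli surface, counted by deep sequencing, each peptide's frequency after selection divided by its frequency in the unselected input library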;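 note: frequency after pTyr selection over input frequency; kinase dosed for 20-30% of maximal phosphorylation in three min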
Measure: phosphorylation enrichment

Please list phosphorylation enrichment recorded for the sequence LQEQNYLAVDS [FAM114A1_Y115] 3.67

Determine from records and report phosphorylation enrichment for RLLVIYPWTQR [HBG2_Y36_V35I] 0.594

Return reported phosphorylation enrichment. Input sequence: REIHDYIKHLG [UNC13C_Y308_D304E] 0.371

Indicate the recorded phosphorylation enrichment value for this sequence: SSVPDYLAAVD [GLB1_Y154_D151V] 0.534

Supply phosphorylation enrichment value. Item: LKEIRYPPYTD [ALDH3B2_Y362_H361R] 0.539

Please report phosphorylation enrichment for the following sequence: PPPPAYDDMAQ [TNK2_Y635_V638M] 0.492

Identify measured phosphorylation enrichment corresponding to MPLTEYLKRIK [CNGB3_Y200] 0.381

Given HLQQSNLPRGT [TEX45_Y396_Y396N] , respond with its phosphorylation enrichment. 0.491

Consider the sequence VKPENDRRLDI [VHL_Y175_Y175D] . State its measured phosphorylation enrichment. 0.37

Read off the recorded phosphorylation enrichment for LGGSPYPRVPV [FGFR1_Y701_G703R] 0.47

Read the entry PELINYHQPNS [BTK_Y361_H364P] and write its reported phosphorylation enrichment. 0.723

Please give measured phosphorylation enrichment of the following entry: VTRANYFIRDE [GNAS_Y339_K338N] 0.412

Please give measured phosphorylation enrichment of the following entry: NPSFNYEIVNR [DYNC1H1_Y3379_YF] 0.488

Return value of phosphorylation enrichment for input VVGMLYVGGLP [LAMA2_Y2886] , no commentary. 0.491
